Measured values drawn from ChEMBL document CHEMBL4033754 for this set.

Target: Neuropeptide Y receptor type 2 (Homo sapiens, UniProt P49146)
Sequence (P49146 whole entry): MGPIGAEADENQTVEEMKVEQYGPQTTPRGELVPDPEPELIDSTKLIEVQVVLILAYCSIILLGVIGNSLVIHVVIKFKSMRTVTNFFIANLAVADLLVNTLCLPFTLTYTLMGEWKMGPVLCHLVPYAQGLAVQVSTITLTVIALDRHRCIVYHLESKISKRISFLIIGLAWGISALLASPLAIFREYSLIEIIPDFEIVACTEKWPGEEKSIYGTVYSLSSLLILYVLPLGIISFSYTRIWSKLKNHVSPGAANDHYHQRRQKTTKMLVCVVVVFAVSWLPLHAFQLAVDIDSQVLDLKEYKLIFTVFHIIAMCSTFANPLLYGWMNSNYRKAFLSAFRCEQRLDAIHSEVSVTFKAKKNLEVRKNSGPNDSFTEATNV
Test: Displacement of [125I]-PYY from human Y2R expressed in CHO cell membranes after 60 mins by liquid scintillation method
Where a SMILES comes first, the peptide text is derived from it. [ ]: non-standard residue; d: D form. The star is where a group is joined. ξ: configuration not given here. ξCha = NC(CC1CCCCC1)C(=O)O; Aib = CC(C)(N)C(=O)O; Bz = O=C(c1ccccc1)*; ξAbu = CCC(N)C(=O)O
value-kind: IC50

Field: example entries. Status: answers known.
CC(=O)N[C@@H](CO)C(=O)NCC(=O)N[C@@H](CCCNC(=N)N)C(=O)N[C@@H](Cc1cnc[nH]1)C(=O)NC(CC1CCCCC1)C(=O)NC(CC1CCCCC1)C(=O)N[C@@H](CC(N)=O)C(=O)N[C@@H](CC(C)C)C(=O)NC(C)(C)C(=O)N[C@H](C(=O)N[C@@H](CCCNC(=N)N)C(=O)N[C@@H](CCC(N)=O)C(=O)N[C@@H](CCCNC(=N)N)C(=O)NC(CC1CCCCC1)C(N)=O)[C@@H](C)O (stereo partly drawn) (Ac-SGRH[ξCha][ξCha]NL[Aib]TRQR[ξCha]-NH2) = 4.8 nM
CCC(NC(=O)[C@H](CCCNC(=N)N)NC(=O)[C@@H](CC(C)C)NC(=O)[C@@H](CO)NC(C)=O)C(=O)NC(CC1CCCCC1)C(=O)NC(CC1CCCCC1)C(=O)N[C@@H](CC(N)=O)C(=O)N[C@@H](CC(C)C)C(=O)NC(C)(C)C(=O)N[C@H](C(=O)N[C@@H](CCCNC(=N)N)C(=O)N[C@@H](CCC(N)=O)C(=O)N[C@@H](CCCNC(=N)N)C(=O)NC(CC1CCCCC1)C(N)=O)[C@@H](C)O (stereo partly drawn) = 23 nM

Let us examine a further case.
IN: What does the data say about its IC50? Entry: CCC(NC(=O)[C@H](CCCNC(=N)N)NC(=O)c1ccccc1)C(=O)NC(CC1CCCCC1)C(=O)NC(CC1CCCCC1)C(=O)N[C@@H](CC(N)=O)C(=O)N[C@@H](CC(C)C)C(=O)NC(C)(C)C(=O)N[C@H](C(=O)N[C@@H](CCCNC(=N)N)C(=O)N[C@@H](CCC(N)=O)C(=O)N[C@@H](CCCNC(=N)N)C(=O)NC(CC1CCCCC1)C(N)=O)[C@@H](C)O (stereo partly drawn) (Bz-R[ξAbu][ξCha][ξCha]NL[Aib]TRQR[ξCha]-NH2)
OUT: 5.7 nM
